I'd appreciate it if you could supply pIC50 values for the items below.
- Measurement Description: Inhibition of CG-14 binding was determined in solid phase assay
- Parameters: species or system Gallus gallus
The scale used: pIC50 is minus the common logarithm of the concentration in molar units.

Could you tell me which pIC50 is on file for CC(C)C[C@H](NC(=O)[C@H](Cc1ccc(O)cc1)NC(=O)[C@@H](CC(=O)O)NC(=O)COCC(=O)NCCCOCCOCCOCCCN)C(=O)N[C@@H](Cc1ccc(O)cc1)C(=O)N[C@@H](Cc1ccccc1)C(N)=O ?
2.16

Fill blank: measured pIC50 of the molecule CC(O)[C@@H](NC(=O)COCC(=O)NCCCOCCOCCOCCCN)C(=O)N[C@@H](Cc1ccc(O)cc1)C(=O)N[C@H](CC(=O)O)C(=O)N[C@@H](Cc1ccc(O)cc1)C(=O)N[C@@H](Cc1ccccc1)C(N)=O (some centres not stated) is ____.
2.12

----------
- Measurement Description: Inhibition of galectin-1 binding was determined in solid phase assay
Result Type: IC50 (mM)
State just the number; it will be interpreted in mM.

Look up IC50: CC(O)[C@@H](NC(=O)COCC(=O)NCCCOCCOCCOCCCN)C(=O)N[C@@H](Cc1ccc(O)cc1)C(=O)N[C@H](CC(=O)O)C(=O)N[C@@H](Cc1ccc(O)cc1)C(=O)N[C@@H](Cc1ccccc1)C(N)=O (some centres not stated)
5.2

# query: IC50 of entry CC(C)C[C@H](NC(=O)[C@H](Cc1ccc(O)cc1)NC(=O)[C@@H](CC(=O)O)NC(=O)COCC(=O)NCCCOCCOCCOCCCN)C(=O)N[C@@H](Cc1ccc(O)cc1)C(=O)N[C@@H](Cc1ccccc1)C(N)=O
8
